Each recorded value in this set is attributed to patent US7915050B2.

- System tested: AtGID1b (Arabidopsis thaliana)
- Sequence (Q9LYC1 whole entry): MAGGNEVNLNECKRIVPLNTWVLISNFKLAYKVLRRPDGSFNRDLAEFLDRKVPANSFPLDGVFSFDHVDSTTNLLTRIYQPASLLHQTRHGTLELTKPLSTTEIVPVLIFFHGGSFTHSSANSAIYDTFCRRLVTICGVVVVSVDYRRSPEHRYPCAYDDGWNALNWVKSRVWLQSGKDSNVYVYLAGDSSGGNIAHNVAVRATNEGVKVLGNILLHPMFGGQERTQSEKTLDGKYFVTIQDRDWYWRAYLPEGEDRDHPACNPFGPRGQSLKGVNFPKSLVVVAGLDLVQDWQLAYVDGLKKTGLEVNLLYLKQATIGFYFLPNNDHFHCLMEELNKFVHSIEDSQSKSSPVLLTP
Test readout: Kd (nM)
Reply numerically in nM, unit not repeated.

Q. What does the record list as Kd for CC1C[C@]23C[C@H]1CCC2[C@]12CC[C@H](O)[C@](C)(C(=O)O1)[C@H]2[C@@H]3C(=O)O (stereo partly shown) [H2-GA4, 16,17-dihydro-GA4] ?
A. 480
